Give IC50 for every item shown.
System: HT29
Assay: In vitro cytotoxicity assay (CellTiter-Glo), HT29
Type: cell-based, Human
Settings: Homo sapiens, HT-29, 144 h, read-out: Cytotoxicity IC50
Method: Human tumor cell lines, SK-BR-3, NCI-H292, HT-29, MCF-7, NCI-N87, and FaDu were obtained from ATCC. […] Lyophilized compounds were dissolved in 100% dry DMSO, aliquots frozen and stored at −80° C. Concentration and purity of compound stock solutions in DMSO were determined by RP-HPLC Agilent 1100 platform with 1200 DAD and SofTA ELSD detectors, and the Agilent 6150 MS system (UV/VIS, ELSD purity and MS compound identity confirmation). […]
Give bare numbers, in nM.

Some compounds with recorded IC50:
INSERT INTO results (smiles_text, observed_measurement) VALUES
  ('CC[C@@]1(O)C(=O)OCc2c1cc1n(c2=S)Cc2c-1nc1cc(F)c(C)c3c1c2[C@@H](NC(=S)CO)CC3', 0.9),
  ('CC[C@@]1(O)C(=O)OCc2c1cc1n(c2=O)Cc2c-1nc1cc(F)c(C)c3c1c2[C@@H](NC(=O)c1cn(CCO)nn1)CC3', 23.3);

Now examine the next entry.
Specify IC50 for `CC[C@@]1(O)C(=O)OCc2c1cc1n(c2=O)Cc2c-1nc1cc(F)c(C)c3c1c2[C@@H](NC(=O)NCCO)CC3` , system HT29.
10.2
